Could you please report measured gMFI, SKW3 WT anti-mFc 647 for the items listed next?
System: T1, human CD4 on cells (SKW3 cells; human PBMCs) (human, UniProt P01730 26-458)
T1 construct: whole, on cells; The SKW3 CD4 knockout cells served as the negative cell line; also called hCD4
Assay remarks: FACS confirmation, supernatant on SKW3 WT cells, anti-mFc 647; background gMFI 3300
Write the number in gMFI without appending the unit.

Value lookup for gMFI, SKW3 WT anti-mFc 647; key = 75110_10K21A (antibody, V domains shown, Tested as non-clonal hybridoma supernatant from AlivaMab Mouse Kappa mice, detected with anti-mouse Fc and anti-human Kappa) VH: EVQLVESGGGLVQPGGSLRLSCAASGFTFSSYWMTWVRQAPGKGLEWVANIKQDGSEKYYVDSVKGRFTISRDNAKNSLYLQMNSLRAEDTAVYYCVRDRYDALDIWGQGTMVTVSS VL: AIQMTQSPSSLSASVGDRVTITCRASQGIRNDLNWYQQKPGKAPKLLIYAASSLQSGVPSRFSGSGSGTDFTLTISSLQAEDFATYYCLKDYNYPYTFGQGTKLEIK
19200

What would you report for 75110_01H18A (antibody, V domains shown, Tested as non-clonal hybridoma supernatant from AlivaMab Mouse Kappa mice, detected with anti-mouse Fc and anti-human Kappa) VH: QVQLQQWGAGLLKPSETLSLTCAVYGGSFSGYYWSWIRQSPGKGLEWIGEINQSGSTNYNPSLKSRVTISVDTSKNQFSLKLSSVTAADTAVYYCARVINWFDSWGQGTLVTVSS VL: DIQMTQSPSSVSASVGDRVTITCRASQGISSWLAWYQQKPGKAPKLLIYAASSFQSGVPSRFSGSGSGTDFTLTISSLQTEDFATYYCQQANSFPYTFGQGTRLEIK ?
19000

What would you report for 75110_08H11A (antibody, V domains shown, Tested as non-clonal hybridoma supernatant from AlivaMab Mouse Kappa mice, detected with anti-mouse Fc and anti-human Kappa) VH: EVQLVESGGGLVQPGGSLRLSCAASGFTFSSYDMHWVRQATGKGLEWVSTIGTAGDTYYPGSVKGRFTISRENAKNSLYLQMNSLRAGDTAVYYCARGGYSYYGMDVWGQGTTVTVSS VL: EIVLTQSPGTLSLSPGERATLSCGASQSVSSTYLAWYQQKPGQAPRLLIYGASSRATGIPDRFSGSGSGTDFTLTISRLEPEDFAVYYCQQFGSSPFTFGPGTKVDIK ?
18600

What would you report for 75110_08H06A (antibody, V domains shown, Tested as non-clonal hybridoma supernatant from AlivaMab Mouse Kappa mice, detected with anti-mouse Fc and anti-human Kappa) VH: EVQLVESGGGLVQPGGSLRLSCAASGFTFSNYDMHWVRQATGKGLEWVSTIGTAGDTYYPGSVKGRFTISRENAKNSLYLQMNSLRAGDTAVYYCARGGYDYYGMDVWGQGTTVTVSS VL: EIVLTQSPGTLSLSPGERATLSCRASQSITSIYLAWYRQKPGQAPRLLIYGASSRATGIPDRFSGSGSGTDFTLTISRLEPEDFAVYYCQQYGSSPFTFGPGTKVDIK ?
23000
